system: SHP2 (Homo sapiens (Human), UniProt Q06124)
Sequence (Q06124 whole entry): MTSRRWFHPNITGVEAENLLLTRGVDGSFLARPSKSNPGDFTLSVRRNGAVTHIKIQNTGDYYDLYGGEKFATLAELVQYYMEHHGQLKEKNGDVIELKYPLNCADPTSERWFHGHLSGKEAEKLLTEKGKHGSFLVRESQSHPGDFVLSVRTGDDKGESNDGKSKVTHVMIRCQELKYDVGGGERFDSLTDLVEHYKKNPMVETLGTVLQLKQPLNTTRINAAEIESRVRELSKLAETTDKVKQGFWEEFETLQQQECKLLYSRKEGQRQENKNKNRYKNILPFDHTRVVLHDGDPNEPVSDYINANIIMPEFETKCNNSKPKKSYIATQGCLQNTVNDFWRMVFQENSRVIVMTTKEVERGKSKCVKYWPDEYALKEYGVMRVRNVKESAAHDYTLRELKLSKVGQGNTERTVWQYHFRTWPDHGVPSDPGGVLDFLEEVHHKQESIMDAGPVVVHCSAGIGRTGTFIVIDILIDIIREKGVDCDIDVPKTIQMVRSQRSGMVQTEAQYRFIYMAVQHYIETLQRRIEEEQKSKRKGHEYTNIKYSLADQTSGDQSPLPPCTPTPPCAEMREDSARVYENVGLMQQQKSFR
measurement_description: SHP2 Biochemical Assay (DiFMUP conversion, pIRS1-activated)
condition_set: Table 19; head prints unit as "-M"
Form field: pIC50 (one value per entry).
Give only the number. pIC50 is defined as minus log10 of concentration in molar units.

C[C@@H]1CNCCN1c1nc2[nH]cc(-c3ccc4nn(C)cc4c3Cl)c2c(=O)n1C | 7.49
Cn1cc2cc(-c3c[nH]c4nc(N5[C@@H]6CC[C@H]5C[C@@H](N)C6)n(C)c(=O)c34)c(F)cc2n1 | 7.00
CCn1cc2c(Cl)c(-c3c[nH]c4nc(N5[C@@H]6CC[C@H]5C[C@@](C)(N)C6)n(C)c(=O)c34)ccc2n1 | 7.77

From here, focus on the item given below.
// query pIC50 value for entry "Cn1cc2c(Cl)c(-c3c[nH]c4nc(N5C[C@H]6C[C@@H](C5)[C@H]6N)n(C)c(=O)c34)ccc2n1"
6.80

* * *

system: SHP2 (Homo sapiens (Human))
measurement_description: SHP2 Biochemical Assay (DiFMUP conversion, pIRS1-activated)
condition_set: Table 19; head prints unit as "-M"
measurement_name: pIC50
Give only the number. pIC50 is defined as minus log10 of concentration in molar units.

Cn1cc2c(Cl)c(-c3c[nH]c4nc(N5CC(N)C(F)(F)C5)n(C)c(=O)c34)ccc2n1 (stereo not shown) [Example 53] | 6.48
Cn1nc2ccc(-c3c[nH]c4nc(N5[C@@H]6CC[C@H]5C[C@@](C)(N)C6)n(C)c(=O)c34)c(Cl)c2c1Cl [Example 79] | 8.26
Cn1cc2c(Cl)c(-c3n[nH]c4nc(N5[C@@H]6CC[C@H]5C[C@H](N)C6)n(C)c(=O)c34)ccc2n1 [Example 140] | 7.77
CN(C)C(=O)Cn1cc2c(Cl)c(-c3c[nH]c4nc(N5C6CCC5CNC6)n(C)c(=O)c34)ccc2n1 [Example 86] | 7.23
Cn1cc2c(Cl)c(-c3c[nH]c4nc(N5CC[C@](C)(N)C5)n(C)c(=O)c34)ccc2n1 [Example 54] | 6.96

// query pIC50 value for entry Cn1cc2c(Cl)c(-c3c[nH]c4nc(N5CC[C@@H](CN)C5)n(C)c(=O)c34)ccc2n1 [Example 63]
6.96

// query pIC50 value for entry CCc1nc2ccc(-c3c[nH]c4nc(N5[C@@H]6CC[C@H]5C[C@@H](N)C6)n(C)c(=O)c34)c(Cl)c2o1 [Example 69]
6.92

* * *

system: SHP2 (Homo sapiens (Human))
measurement_description: SHP2 Biochemical Assay (DiFMUP conversion, pIRS1-activated)
condition_set: Table 20
Where a name gives a salt, the structure may show the parent alone.
measurement_name: pIC50
Give only the number. pIC50 is defined as minus log10 of concentration in molar units.

// query pIC50 value for entry Cn1c(N2CC[C@H](N)[C@H](F)C2)nc2[nH]cc(-c3ccc4ncsc4c3Cl)c2c1=O [Example 187, hydrochloride]
7.29

* * *

system: SHP2 (Homo sapiens (Human))
measurement_description: SHP2 Biochemical Assay (DiFMUP conversion, pIRS1-activated)
condition_set: Table 20
Where a name gives a salt, the structure may show the parent alone.
Form field: IC50 (one value per entry).
Give just the number in nM; leave the unit off.

Some entries whose results are on file:
Cn1nc2ccc(-c3c[nH]c4nc(N5[C@H]6CC[C@@H]5[C@@H](N)C6)n(C)c(=O)c34)c(Cl)c2c1Cl [Example 166] | 53
CCn1cc2c(Cl)c(-c3c[nH]c4nc(N5CCC6(CNC6)C5)n(C)c(=O)c34)ccc2n1 (racemic) [Example 196] | 32
CCN[C@@H]1C[C@@H]2CC[C@H]1N2c1nc2[nH]nc(-c3ccc4nn(C)c(Cl)c4c3Cl)c2c(=O)n1C [Example 177] | 95
CCn1cc2c(Cl)c(-c3c[nH]c4nc(N5CC6CNC(C6)C5)n(C)c(=O)c34)ccc2n1 (single isomer, unassigned) [Example 191, hydrochloride] | 92

From here, focus on the item given below.
// query IC50 value for entry Cn1nc2ccc(-c3c[nH]c4nc(N5[C@H]6CC[C@@H]5[C@H](N)C6)n(C)c(=O)c34)cc2c1Cl [Example 167]
13

* * *

Form field: IC50 (one value per entry).
system: SHP2 (Homo sapiens (Human), UniProt Q06124)
measurement_description: SHP2 Biochemical Assay (DiFMUP conversion, pIRS1-activated)
condition_set: Table 19; head prints unit as "-M"
Counter-ions that a name gives are not always drawn.
Give just the number in µM; leave the unit off.

Some entries whose results are on file:
Cn1nc2ccc(-c3n[nH]c4nc(N5CC6COCC(C5)N6)n(C)c(=O)c34)c(Cl)c2c1Cl [Example 146, hydrochloride salt] | 0.057
CCn1cc2c(Cl)c(-c3n[nH]c4nc(N5[C@H]6CC[C@@H]5[C@H](NC)C6)n(C)c(=O)c34)ccc2n1 | 0.049
Cn1cc2cc(-c3c[nH]c4nc(N5[C@@H]6CC[C@H]5C[C@@H](N)C6)n(C)c(=O)c34)ccc2n1 | 0.34

// query IC50 value for entry Cn1cc2c(Cl)c(-c3c[nH]c4nc(N5CC6CC5CC6N)n(C)c(=O)c34)ccc2n1 (stereo not shown)
0.038

* * *

system: SHP2 (Homo sapiens (Human))
measurement_description: SHP2 Biochemical Assay (DiFMUP conversion, pIRS1-activated)
condition_set: Table 19; head prints unit as "-M"
measurement_name: IC50 (µM)
Give just the number in µM; leave the unit off.

CN[C@H]1C[C@H]2CC[C@@H](C1)N2c1nc2[nH]cc(-c3ccc4nn(C)cc4c3Cl)c2c(=O)n1C [Example 14] | 0.024

// query IC50 value for entry CN[C@@H]1C[C@@H]2CC[C@H]1N2c1nc2[nH]cc(-c3ccc4nc(C)sc4c3Cl)c2c(=O)n1C [Example 107]
0.007

// query IC50 value for entry CCn1cc2c(Cl)c(-c3n[nH]c4nc(N5[C@@H]6CC[C@H]5C[C@@](C)(N)C6)n(C)c(=O)c34)ccc2n1 [Example 115]
0.046

// query IC50 value for entry CN(C)C(=O)CCn1nc2ccc(-c3c[nH]c4nc(N5C6CCC5CNC6)n(C)c(=O)c34)c(Cl)c2c1Cl [Example 89]
0.014

* * *

system: SHP2 (Homo sapiens (Human))
measurement_description: SHP2 Biochemical Assay (DiFMUP conversion, pIRS1-activated)
condition_set: Table 19; head prints unit as "-M"
measurement_name: log10 of IC50 (log10 of the value in nM)
Scale: decimal log of IC50, IC50 in nM.

Some entries whose results are on file:
CCn1cc2c(Cl)c(-c3c[nH]c4nc(N5CCC6(CCC[C@H]6N)CC5)n(C)c(=O)c34)ccc2n1 [Example 11] | 0.80
Cn1nc2ccc(-c3c[nH]c4nc(N5[C@@H]6CC[C@H]5C[C@@H](N)C6)n(C)c(=O)c34)c(Cl)c2c1Cl [Example 78] | 0.78
Cn1cc2c(Cl)c(-c3c[nH]c4nc(N5CC6CC(C5)N6)n(C)c(=O)c34)ccc2n1 [Example 31] | 1.60
Cn1cc2c(Cl)c(-c3c[nH]c4nc(N5C[C@H]6C[C@@H](C5)[C@@H]6N)n(C)c(=O)c34)ccc2n1 [Example 33] | 1.67
Cn1cc2c(Cl)c(-c3c[nH]c4nc(N5[C@@H]6CC[C@H]5C[C@H](N)C6)n(C)c(=O)c34)ccc2n1 [Example 10] | 0.93

// query log10 of IC50 value for entry Cn1cc2c(Cl)c(-c3c[nH]c4nc(N5[C@@H]6CC[C@H]5[C@@H](F)[C@@H](N)C6)n(C)c(=O)c34)ccc2n1 [Example 132]
1.18

// query log10 of IC50 value for entry Cn1cc2c(Cl)c(-c3c[nH]c4nc(N5C[C@H]6CC[C@@H]5[C@@H]6N)n(C)c(=O)c34)ccc2n1 (stereo in doubt) [Example 157]
0.57

// query log10 of IC50 value for entry CN[C@@H]1C[C@@H]2CC[C@H]1N2c1nc2[nH]cc(-c3ccc4nn(C)cc4c3Cl)c2c(=O)n1C [Example 97]
0.89

// query log10 of IC50 value for entry Cn1cc2c(Cl)c(-c3c[nH]c4nc(N5[C@@H]6CC[C@H]5C[C@@H](N)C6)n(C)c(=O)c34)ccc2n1 [Example 8]
1.04

// query log10 of IC50 value for entry Cn1cc2c(Cl)c(-c3c[nH]c4nc(N5CC[C@H](N)C5)n(C)c(=O)c34)ccc2n1 [Example 43]
1.54

// query log10 of IC50 value for entry Cn1cc2c(Cl)c(-c3n[nH]c4nc(N5C6CCCC5CNC6)n(C)c(=O)c34)ccc2n1 [Example 117]
1.40

// query log10 of IC50 value for entry CCn1cc2c(Cl)c(-c3c[nH]c4nc(N5C6CCC5CNC6)n(C)c(=O)c34)ccc2n1 [Example 91]
1.08

// query log10 of IC50 value for entry Cn1c(N2[C@@H]3CC[C@H]2C[C@@H](N)C3)nc2[nH]cc(-c3ccc4nn(CC(C)(C)O)cc4c3Cl)c2c1=O [Example 75]
1.45

// query log10 of IC50 value for entry Cn1cc2c(Cl)c(-c3c[nH]c4nc(N5C[C@@H]6C[C@H]5CN6)n(C)c(=O)c34)ccc2n1 [Example 21]
1.04

Source listed as patent US12037345B2.
